Molecular target: Beta-1 adrenergic receptor (Homo sapiens)
Sequence (P08588 whole entry): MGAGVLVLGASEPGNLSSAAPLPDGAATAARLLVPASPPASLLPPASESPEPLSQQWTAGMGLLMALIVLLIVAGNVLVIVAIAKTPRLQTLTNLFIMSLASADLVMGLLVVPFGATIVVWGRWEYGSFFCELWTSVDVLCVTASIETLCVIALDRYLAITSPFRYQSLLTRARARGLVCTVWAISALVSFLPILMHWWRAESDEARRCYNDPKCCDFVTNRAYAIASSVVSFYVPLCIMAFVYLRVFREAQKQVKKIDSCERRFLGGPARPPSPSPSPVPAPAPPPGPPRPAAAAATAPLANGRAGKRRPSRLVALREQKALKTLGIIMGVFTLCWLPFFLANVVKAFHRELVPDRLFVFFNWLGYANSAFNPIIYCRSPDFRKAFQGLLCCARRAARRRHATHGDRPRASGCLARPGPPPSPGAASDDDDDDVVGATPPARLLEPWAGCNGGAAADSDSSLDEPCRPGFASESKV
quantity_measured: pKd
Worth noting: pKd values are minus log10 of concentrations stated in mol/L.

Input: Fill: pKd (Beta-1 adrenergic receptor (Homo sapiens)) for this compound Cc1cccc(OC[C@@H](O)CNC(C)C)c1 [(S)-TOLIPROLOL]
Output: 9.42

====

Biological target: Beta-2 adrenergic receptor (Homo sapiens)
Sequence (P07550 whole entry): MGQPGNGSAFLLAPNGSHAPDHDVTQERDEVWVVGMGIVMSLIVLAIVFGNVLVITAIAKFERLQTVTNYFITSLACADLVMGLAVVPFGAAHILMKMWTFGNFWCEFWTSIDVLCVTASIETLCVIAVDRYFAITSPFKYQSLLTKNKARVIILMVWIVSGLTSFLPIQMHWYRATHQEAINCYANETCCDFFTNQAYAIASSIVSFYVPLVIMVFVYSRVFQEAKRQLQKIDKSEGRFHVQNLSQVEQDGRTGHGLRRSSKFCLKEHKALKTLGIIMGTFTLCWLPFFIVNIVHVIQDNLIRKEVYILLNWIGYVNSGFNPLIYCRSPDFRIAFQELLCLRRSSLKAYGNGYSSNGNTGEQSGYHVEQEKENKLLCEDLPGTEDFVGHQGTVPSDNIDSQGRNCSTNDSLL
quantity_measured: pKd
Worth noting: pKd values are minus log10 of concentrations stated in mol/L.

Input: Quickly give me recorded pKd for Cc1cccc(OC[C@@H](O)CNC(C)C)c1 [(S)-TOLIPROLOL]
Output: 8.92

====

Recorded remaining at 1 h by entry
Experiment: Metabolic stability in Sprague-Dawley rat plasma at 70 uCi, iv after 60 mins
Format: ADME, organism-based
Settings: read-out: Stability
Give a bare numeral; the unit % is implied.

Input: Quickly give me recorded remaining at 1 h for Cc1cccc(OC[C@H](O)CNC(C)C[18F])c1 (some centres not stated)
Output: 7.7

Let's switch to this compound now.
Input: Quickly give me recorded remaining at 1 h for Cc1cccc(OC[C@@H](O)CNC(C)C[18F])c1 (some centres not stated)
Output: 11.9
